PROCEDURE TEXT: in vitro
EXPERIMENTAL CONDITIONS: PAMPA
Quick reference for Papp among some molecules
MEASUREMENT NAME: Papp (×10⁻⁶ cm/s)

compound=COc1cccc([C@@H](C)NC(=O)c2ccc(-c3ccncn3)cc2N2CCC[C@@H](CN)C2)c1 measurement_name=Papp units_of_measure="×10⁻⁶ cm/s" reported_value=2.5
compound=COc1cccc([C@@H](C)NC(=O)c2ccc(-c3ccncn3)cc2N2CCC[C@H](CN)C2)c1 measurement_name=Papp units_of_measure="×10⁻⁶ cm/s" reported_value=2.6
compound=COc1cccc([C@@H](C)NC(=O)c2ccc(-c3ccncn3)cc2N2CC[C@@H](CN)C2)c1 measurement_name=Papp units_of_measure="×10⁻⁶ cm/s" reported_value=1.4
